Recorded values, source ChEMBL document CHEMBL1201862.

Reported GI50 values follow for various molecules
# Test system: OVCAR-3
# method notes: NCI tumour cell line growth inhibition, 48 h
Active and inactive are the calls of the source. No stated cut-off is given here; in the data, active = GI50 up to about 1.1 µM and inactive = higher.

Problem: Which GI50 reading was recorded for the molecule "Cc1cc2c(cc1C)[n+]([O-])c(C(=O)/C=C/c1ccc3c(c1)OCO3)c(C)[n+]2[O-]" ?
Solution: > 86.1 µM (inactive)

Problem: May I ask what GI50 has been recorded for COc1cc(/C=C2\C(=O)N(c3ccccc3Cl)C(c3ccccc3)S2(=O)=O)cc(OC)c1OC (stereo unspecified) ?
Solution: 47.4 µM (inactive)

Problem: Using the record for C#CCC1(C(=O)OCC)C(=O)c2ccccc2N(C)C1=O (stereo unspecified) , report its GI50.
Solution: > 100 µM (inactive)

Problem: Please give the measured GI50 for this molecule: "COc1cc([C@@H]2c3cc4c(cc3[C@@H](c3c(O)cc(O)c5c3O[C@H](c3ccc(O)c(O)c3)[C@H](OC(=O)c3cc(O)c(O)c(O)c3)C5)[C@H]3COC(=O)[C@H]23)OCO4)cc(OC)c1O"
Solution: 28.2 µM (inactive)

Problem: Item "CCCCc1ccc(Nc2nc(N)c3ncn(COCCO)c3n2)cc1" has what recorded GI50?
Solution: 16.6 µM (inactive)

Problem: Recorded GI50 of "NC(=O)c1cccc([C@@H]2O[C@H](CO)[C@@H](O)[C@H]2O)c1" , please.
Solution: 18.9 µM (inactive)

Problem: Which GI50 is reported for this molecule? "O=Nc1c(-c2c(O)[nH]c3ccc(I)cc23)[nH]c2ccccc12"
Solution: 5.35 µM (inactive)

Problem: Can you share its GI50? I mean this molecule: "COc1cc2c(cc1OC)-c1[nH]c3ccc(C#N)cc3c1CC(=O)N2"
Solution: 1.42 µM (inactive)

Problem: Consider the molecule shown here: "c1ccc2c(c1)[nH]c1c[nH]c3c4cccnc4nc-3c12" What is its recorded GI50?
Solution: 17.1 µM (inactive)

Problem: Given the entry Cc1cc(Cl)ccc1NC(=O)C1C(=O)N(c2ccc(Cl)cc2C)C(=O)/C1=N\N (stereo unspecified) , report its measured GI50.
Solution: 30.8 µM (inactive)

Problem: What value of measured GI50 is listed for "COc1cc(/C=C/c2cc(=O)cc(/C=C/c3ccc(O)c(OC)c3)o2)ccc1O" ?
Solution: 76.4 µM (inactive)

----------
# Test system: M14
# method notes: NCI tumour cell line growth inhibition, 48 h
Active and inactive are the calls of the source. Cut-off read from the data, not from the text of the source: active = GI50 up to about 1.1 µM and inactive = higher.
A correct response names exactly one class from T (active), F (inactive)

// below: answered compounds
{"compound": "COC(=O)C1=C(OC(=O)/C(=C/c2ccccc2)c2ccc(OC)cc2)C(C(=O)OC)[C@@]2(O)[C@@H](C(=O)OC)[C@H](C)C[C@@H]1[C@@H]2C(=O)OC (some centres undefined)", "group label": "F"}
{"compound": "NS(=O)(=O)c1ccc(/C=C/c2ccc(F)cc2)cc1", "group label": "F"}
{"compound": "COC(=O)c1nn(C(=N)c2ccc(Cl)cc2)c2c1CCCCC2", "group label": "F"}
{"compound": "COc1ccc2c(c1)[n+]([O-])c(C#N)c(N1CCN(c3ccc([N+](=O)[O-])cc3)CC1)[n+]2[O-]", "group label": "F"}
{"compound": "O=C(C/N=C(\\CN(c1ccccc1)c1ccccc1)Oc1ccc(Cl)cc1Cl)n1ccnc1", "group label": "F"}

Problem: Query: recorded result category for COC(=O)C(=O)C(C(=O)C(=O)Nc1cc([N+](=O)[O-])ccc1C#N)c1nc2ccccc2nc1O (centres undefined) in this test
Solution: F

Problem: Write down the call the test reported for this compound. Item: "N#Cc1c(-c2ccccc2)c(/C=N/c2ccc(F)cc2)c(=O)n2c1[nH]c1ccccc12"
Solution: F

Problem: State the result this test recorded for "COc1cc(/N=C(\N)N=C(N)N)c2ncccc2c1" .
Solution: F

Problem: Test call for this compound, please: "CNC(=O)CCNC(=O)CCC(=O)N(C)C"
Solution: F

----------
List of GI50 values.
# Test system: PC-3
# method notes: NCI tumour cell line growth inhibition, 48 h
Active and inactive are the calls of the source. Cut-off read from the data, not from the text of the source: active = GI50 up to about 1.1 µM and inactive = higher. Where a SMILES comes first, the peptide text is derived from it. The star is where a group is joined. Cbz = O=C(OCc1ccccc1)*; Boc = CC(C)(C)OC(=O)*; Bn = c1ccc(C*)cc1

Here are 5 compounds together with their reported answers.
{"compound": "BrC(c1cccc2ccccc12)c1cccc2ccccc12", "test system": "PC-3", "GI50": "22.1 µM (inactive)"}
{"compound": "CC(C)(C)OC(=O)NC(Cc1ccc(OCc2ccccc2)cc1)C(=O)NC(CCCCNC(=O)OCc1ccccc1)C(=O)O (stereo not drawn) (Boc-Tyr(Bn)-Lys(Cbz)-OH; configuration not given here)", "test system": "PC-3", "GI50": "68.1 µM (inactive)"}
{"compound": "Cc1ccc(C(=O)/C=C(\\O)C(=O)NC23CC4CC(CC(C4)C2)C3)cc1", "test system": "PC-3", "GI50": "9.79 µM (inactive)"}
{"compound": "CO/C(=N\\N=C\\c1cc(OC)ccc1OC)c1ccncc1", "test system": "PC-3", "GI50": "> 10 µM (inactive)"}
{"compound": "C[C@@H]1Nc2cc(NC(=O)OCCF)nc(N)c2N=C1c1ccccc1", "test system": "PC-3", "GI50": "< 0.0001 µM (active)"}

Problem: Recorded GI50 of "Cc1cc(-c2ccc(C(=O)C(Cl)(Cl)Cl)[nH]2)on1" , please.
Solution: 29.9 µM (inactive)

----------
# Test system: A498
# method notes: NCI tumour cell line growth inhibition, 48 h
Calls of active or inactive are those of the source. Cut-off read from the data, not from the text of the source: active = GI50 up to about 1.1 µM and inactive = higher.
observation type: GI50

// solved cases for GI50 follow
{"compound": "c1ccc(/N=C2\\C(=N/c3ccccc3)N(C3CCCCC3)/C(=N\\C3CCCCC3)N2c2ccccc2)cc1", "test system": "A498", "GI50": "> 100 µM (inactive)"}
{"compound": "O=C1c2ccccc2CN1c1ccc(O)cc1", "test system": "A498", "GI50": "> 100 µM (inactive)"}
{"compound": "CC(CCc1ccc2c(c1)c(N)c1ccc(N)cc1[n+]2[O-])CC(C)(C)C (stereo unspecified)", "test system": "A498", "GI50": "1.89 µM (inactive)"}
{"compound": "COc1ccc(CC(O)CN2CCOCC2)cc1 (stereo unspecified)", "test system": "A498", "GI50": "> 100 µM (inactive)"}
{"compound": "COc1ccc2c(c1)[n+]([O-])c(/C(C)=N/NC(=O)CC#N)c[n+]2[O-]", "test system": "A498", "GI50": "> 100 µM (inactive)"}

Let us examine a further case.
Problem: So what does the record say about GI50 for CC(NC(=O)OCc1ccccc1)NC(=O)OC(C)(C)C (stereo unspecified) ?
Solution: > 100 µM (inactive)

----------
# Test system: MCF7
# method notes: NCI tumour cell line growth inhibition, 48 h
Activity calls are given as the source filed them. Cut-off read from the data, not from the text of the source: active = GI50 up to about 1.1 µM and inactive = higher.
Please answer using one outcome listed in class 1 (active), class 0 (inactive)

{"molecule": "Nc1ncnc2c1ncn2[C@@H]1O[C@H](COC(c2ccccc2)(c2ccccc2)c2ccccc2)[C@@H](OC(=S)Oc2ccccc2)[C@@H]1F", "group label": "class 0"}
{"molecule": "CN(C)CCCNC(=O)N/N=C/c1ccc(O)cc1", "group label": "class 0"}

Problem: Could you kindly confirm the outcome this assay logged for COC12c3ccccc3-c3ccccc3C1[C@@H](C(=O)O)[C@H]2C(=O)O (stereo not given in full) ?
Solution: class 0

Problem: Fill in: this test's call for "N#CC(C#N)=C1/C(=C/C=C/C=C/C=C/c2ccc(N3CCCCC3)s2)S(=O)(=O)c2ccccc21" is ___
Solution: class 0

Problem: Would you mind telling me which call this test gave "CC[C@@]1(O)C(=O)OCc2c1cc1n(c2=O)Cc2c-1nc1ccccc1c2CC[Si](C)(C)C" ?
Solution: class 1

Problem: Which outcome was assigned to "O=C(CCc1ccc(O)cc1)NCCc1cccc(OCc2ccccc2)c1" in this test?
Solution: class 0

Problem: // param item: "CC1=[N+]([O-])C(C)(C)N(N=O)C1(C)C" ; yields the recorded call
Solution: class 0

Problem: Call for entry Nc1ncnc2c1ncn2C1CCC(CO)O1 (stereo not given) :
Solution: class 0

Problem: // param item: "Cc1c[nH]c(C(=O)O)c1-c1ccc2c(-c3ccccc3)nc3ccccc3n12" ; yields the recorded call
Solution: class 0

Problem: I would be grateful if you could indicate the recorded call for "O=C(C/N=C(\CN(c1ccccc1)c1ccccc1)Oc1ccc(Cl)cc1Cl)n1ccnc1" .
Solution: class 0

----------
Listing of entries alongside the reported GI50.
# Test system: HCT-15
# method notes: NCI tumour cell line growth inhibition, 48 h
API: value field is a number in µM; no unit string.

{"molecule": "N#CC(C#N)=C1CCCCc2ccc([N+](=O)[O-])cc21", "test system": "HCT-15", "units of measure": "µM", "GI50": 63.7}
{"molecule": "COc1ccc(N2C(N)=C(C#N)C(C#N)(C#N)C2c2cccc([N+](=O)[O-])c2)cc1 (stereo not drawn)", "test system": "HCT-15", "units of measure": "µM", "GI50": 15.5}
{"molecule": "CCCOP1(=O)C=C(C)C(Cl)=C(C)C1 (stereo not drawn)", "test system": "HCT-15", "units of measure": "µM", "GI50": 20}
{"molecule": "CC(C)(C)OC(=O)N/C(C=O)=C\\C1CCCCC1", "test system": "HCT-15", "units of measure": "µM", "GI50": 18.8}
{"molecule": "CCC(NC(C)c1ccccc1)C(O)c1ccc(OCc2ccccc2)c(OCc2ccccc2)c1 (stereo not drawn)", "test system": "HCT-15", "units of measure": "µM", "GI50": 14.5}
{"molecule": "NC(=O)c1nc[nH]c1/N=N/SCC(N)C(=O)O (stereo not drawn)", "test system": "HCT-15", "units of measure": "µM", "GI50": 43.2}

Problem: Item CC[C@@]1(O)C(=O)OCc2c1cc1n(c2=O)Cc2c-1nc1ccccc1c2CC[Si](C)(C)C [COSITECAN] has what recorded GI50?
Solution: 0.0789

Problem: Can you look up the measured GI50 of "COc1cc2c(cc1C)NC(=O)/C2=C/c1c(Cl)[nH]c2cc(C)c(OC)cc12" for me?
Solution: 3.72

Problem: Which GI50 value belongs to OCCCCCCCCCCCOc1ccc(C2OCC3(CC=CCC3)CO2)cc1 (stereo not drawn) ?
Solution: 15.2

Problem: Which GI50 is reported for this molecule? "O=C1C([P+](c2ccccc2)(c2ccccc2)c2ccccc2)=C([O-])C(=Cc2ccc(Cl)c(Cl)c2)C([O-])=C1[P+](c1ccccc1)(c1ccccc1)c1ccccc1"
Solution: 4.79
